MEASUREMENT_TARGET: Cytochrome P450 2C9 (Homo sapiens, UniProt P11712)
Sequence (P11712 whole entry): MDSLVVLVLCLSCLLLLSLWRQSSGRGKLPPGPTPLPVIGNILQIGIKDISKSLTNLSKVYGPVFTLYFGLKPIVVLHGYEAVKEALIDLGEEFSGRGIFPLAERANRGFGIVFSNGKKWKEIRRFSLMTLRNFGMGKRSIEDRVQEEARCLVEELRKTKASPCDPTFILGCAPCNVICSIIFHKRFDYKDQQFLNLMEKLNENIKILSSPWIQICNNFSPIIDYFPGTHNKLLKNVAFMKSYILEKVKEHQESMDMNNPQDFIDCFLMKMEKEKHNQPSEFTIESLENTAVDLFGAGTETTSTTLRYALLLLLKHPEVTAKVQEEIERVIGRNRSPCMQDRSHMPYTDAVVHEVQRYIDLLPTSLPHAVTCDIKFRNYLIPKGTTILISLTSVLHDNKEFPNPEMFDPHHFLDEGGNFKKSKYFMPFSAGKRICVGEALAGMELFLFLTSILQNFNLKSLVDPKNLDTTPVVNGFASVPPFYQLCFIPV
MEASURE_NAME: AC50

Please review the entries below; each comes with its answer.
COMPOUND | MEASUREMENT_TARGET | VAL
COc1c2ccoc2nc2c(OC)c(OC[C@H](O)C(C)(C)O)ccc12 | Cytochrome P450 2C9 (Homo sapiens, UniProt P11712) | inconclusive
CN(C)S(=O)(=O)Oc1ccccc1C(=O)Nc1cccc(C(F)(F)F)c1 | Cytochrome P450 2C9 (Homo sapiens, UniProt P11712) | inconclusive
O=C(CCCC(=O)OCC(=O)c1ccc(Cl)cc1Cl)Nc1cc(C(F)(F)F)ccc1Cl | Cytochrome P450 2C9 (Homo sapiens, UniProt P11712) | inconclusive
CC(=O)N/N=C/c1cc([N+](=O)[O-])ccc1OCCOc1ccccc1 | Cytochrome P450 2C9 (Homo sapiens, UniProt P11712) | inconclusive

[Q] AC50 of COCCNC(=O)C1CC(c2cccc(OC)c2)=NO1 (configuration not stated) on Cytochrome P450 2C9 (Homo sapiens, UniProt P11712)?
[A] inconclusive

[Q] And the next one, Cc1[nH]c2ccccc2c1-c1cc(-c2cc(-c3c(C)[nH]c4ccccc34)on2)no1 ?
[A] inconclusive

[Q] Same read-out for CCOc1ccc(/C=C/C(=O)Nc2ccc(OC)cc2[N+](=O)[O-])cc1 ?
[A] inconclusive
